protocol-summary: Pharmacokinetics after subcutaneous administration in dogs
Assay type: in vivo
condition-description: beagle, plasma; Dog, SC, 0.6 mg/kg
parameter: Cmax

Input CO[C@@H]1[C@H](OC(=O)/C=C/c2ccc(OCCN(C)C)cc2)CC[C@]2(CO2)[C@H]1[C@@]1(C)O[C@@H]1CC=C(C)C [beloranib, reference compound] , output reported Cmax. 16.6 ng/mL

----------
Test system: plasma proteins
protocol-summary: Plasma protein binding, summary over species
Type: in vitro ADME
condition-description: species not specified
parameter: fraction bound to plasma proteins

Name the value of fraction bound to plasma proteins reported for CO[C@@H]1[C@H](OC(=O)N2CC(CCN3CCOCC3)C2)CC[C@]2(CO2)[C@H]1[C@@]1(C)O[C@@H]1CC=C(C)C [Compound A] when tested on plasma proteins. 0.3 to 0.7

----------
protocol-summary: Toxicology study in the rat, s.c. Q3D for 28 days
Type: in vivo, Sprague Dawley rats
condition-description: male, Sprague Dawley, rat, in vivo, sc, 6 mg/kg, Day 28, male rats, NOAEL 6 mg/kg; read-out: AUC0-t at NOAEL
parameter: AUC(0-t) (ng·h/mL)
Could you give me the number in ng·h/mL? Just the number is fine.

Input "CO[C@@H]1[C@H](OC(=O)N2CC(CCN3CCOCC3)C2)CC[C@]2(CO2)[C@H]1[C@@]1(C)O[C@@H]1CC=C(C)C" , output reported AUC(0-t). 409

----------
protocol-summary: Pharmacokinetics after subcutaneous administration in humans
Type: in vivo, Human
condition-description: plasma; Human, SC, 2 mg; read-out: Cmax
parameter: Cmax (ng/mL)
Could you give me the number in ng/mL? Just the number is fine.

Input CO[C@@H]1[C@H](OC(=O)/C=C/c2ccc(OCCN(C)C)cc2)CC[C@]2(CO2)[C@H]1[C@@]1(C)O[C@@H]1CC=C(C)C [beloranib, reference compound] , output reported Cmax. 1

----------
Each entry below carries its recorded Tmax.
protocol-summary: Pharmacokinetics after subcutaneous administration in rabbits
Assay type: in vivo, Rabbit
condition-description: plasma; Rabbit, SC, 1 mg/kg
Could you give me the number in h? Just the number is fine.

# compound, parameter, test-value
measured = [
    ("CO[C@@H]1[C@H](OC(=O)N2CC(CCN3CCOCC3)C2)CC[C@]2(CO2)[C@H]1[C@@]1(C)O[C@@H]1CC=C(C)C [Compound A]", "Tmax", 0.33),
]

Input CO[C@@H]1[C@H](OC(=O)/C=C/c2ccc(OCCN(C)C)cc2)CC[C@]2(CO2)[C@H]1[C@@]1(C)O[C@@H]1CC=C(C)C [beloranib, reference compound] , output reported Tmax. 1.7

----------
protocol-summary: Pharmacokinetics after intravenous administration in rats
condition-description: in vivo; Rat, IV Bolus, 3 mg/kg
parameter: half-life (h)
Could you give me the number in h? Just the number is fine.

Input CO[C@@H]1[C@H](OC(=O)/C=C/c2ccc(OCCN(C)C)cc2)CC[C@]2(CO2)[C@H]1[C@@]1(C)O[C@@H]1CC=C(C)C [beloranib, reference compound] , output reported half-life. 1.05

----------
protocol-summary: Protein binding in human plasma (dialysis)
Type: in vitro ADME
condition-description: Human Plasma, intended 1000 nM, actual 338 nM; read-out: % Bound (converted)
parameter: fraction unbound at 4 h, 1000 nM
Answer with a number only.

Input "CO[C@@H]1[C@H](OC(=O)N2CC(CCN3CCOCC3)C2)CC[C@]2(CO2)[C@H]1[C@@]1(C)O[C@@H]1CC=C(C)C" , output reported fraction unbound at 4 h, 1000 nM. 0.748
